# assay: in vitro stability in 10% human plasma, LC-MS/MS
# Type: in vitro ADME
# condition.details: room temperature, 100 ng/ml, 1 h

substance: Ac-WVTHRLAGLLSQSGGVVRKNFVPTDVGPFAF-NH2 [SEQ ID NO: 37]
units: %
remaining at 1 h, 100 ng/ml: 10

substance: Ac-WVTHQLAGLLSQSGGVVRKNFVPTDVGPFAF-NH2 [SEQ ID NO: 39]
units: %
remaining at 1 h, 100 ng/ml: 50.2

====

# test.target: CGRP1 receptor (Homo sapiens, UniProt O60894+Q16602)
# Construct: SK-N-MC cells express CRLR and RAMP1, which form CGRP1 receptor; endogenous in cells; host or cells: SK-N-MC human neuroblastoma cells
# Sequence (Q16602 23-461): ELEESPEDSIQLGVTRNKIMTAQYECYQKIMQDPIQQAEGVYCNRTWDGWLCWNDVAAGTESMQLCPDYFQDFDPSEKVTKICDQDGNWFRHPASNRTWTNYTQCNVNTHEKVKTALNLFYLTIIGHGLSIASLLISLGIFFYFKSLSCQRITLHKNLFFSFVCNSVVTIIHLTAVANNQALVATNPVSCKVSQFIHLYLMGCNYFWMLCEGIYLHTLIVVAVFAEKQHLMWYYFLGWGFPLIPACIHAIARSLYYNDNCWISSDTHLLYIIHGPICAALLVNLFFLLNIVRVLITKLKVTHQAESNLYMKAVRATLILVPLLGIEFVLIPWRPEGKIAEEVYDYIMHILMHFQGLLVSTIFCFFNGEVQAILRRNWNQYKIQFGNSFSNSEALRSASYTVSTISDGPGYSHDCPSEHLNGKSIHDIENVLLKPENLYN
# Sequence (O60894 27-148): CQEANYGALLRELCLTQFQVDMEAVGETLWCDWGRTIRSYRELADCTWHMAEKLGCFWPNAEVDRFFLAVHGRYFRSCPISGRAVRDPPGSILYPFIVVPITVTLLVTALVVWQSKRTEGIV
# assay: in vitro CGRP1 receptor mediated cAMP assay in SK-N-MC cells
# Format: cell-based
# condition.details: cAMP assay
PEG = not defined here
attribute.measured: improved potency relative to native CGRP(8-37) (SEQ ID NO:1)

substance: SEQ ID NO:15 (Ac-WVTHRLAGLLSRSGGVVRK(PEG)NFVPTDVGPFAF-NH2; reading uncertain)
test.target: CGRP1 receptor (Homo sapiens, UniProt O60894+Q16602)
result: about 12 fold
//
substance: SEQ ID NO:16 (Ac-WVTHRLAGLLSRSGGVVRK(PEG)NFVPTDVGPFAF-NH2; reading uncertain)
test.target: CGRP1 receptor (Homo sapiens, UniProt O60894+Q16602)
result: about 12 fold
